Molecular target: PTP1B (PTP1B1-321) (Homo sapiens, UniProt P18031)
Construct: His-tag; made in house; host or cells: E. coli BL21 (DE3), pET21b
Sequence (P18031 1-321): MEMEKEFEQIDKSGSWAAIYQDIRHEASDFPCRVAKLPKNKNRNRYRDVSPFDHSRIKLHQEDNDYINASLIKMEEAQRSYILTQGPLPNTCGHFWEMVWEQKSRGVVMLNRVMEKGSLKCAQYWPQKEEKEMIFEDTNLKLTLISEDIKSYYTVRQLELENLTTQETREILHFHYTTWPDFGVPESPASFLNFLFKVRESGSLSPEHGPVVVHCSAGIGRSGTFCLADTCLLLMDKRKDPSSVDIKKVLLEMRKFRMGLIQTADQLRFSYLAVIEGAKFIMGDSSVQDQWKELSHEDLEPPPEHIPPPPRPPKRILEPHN
Assay: PTP1B-catalyzed hydrolysis of pNPP in the presence of terpenoids (enzyme kinetics, IC50 from best-fit models)
Format: biochemical, H. sapiens
Details: PTP1B1-321; competitive model of inhibition; read-out: Fit par. Ki, competitive model
property_name: Ki (µM)
Numbers only, in µM.

Sample records with Ki:
CC(C)=CCC[C@](C)(O)[C@@H]1CC=C(C)CC1 [α-bisabolol, reference compound]    178
CC1=C[C@H]2[C@@H](CC1)[C@H](C)CC[C@H]2[C@@H](C)C(=O)O [dihydroartemisinic acid, reference compound]    178
CC1=C[C@@H]2C(=C(C)CC[C@H]2C(C)C)CC1 [(+)-1 (10),4-cadinadiene]    14.8

Okay, here is my list. What is Ki for each of these?
1. C=C(C)[C@@H]1CC[C@@H](C)[C@@H]2CCC(C)=C[C@@H]21
2. CC(C)=CCC=C(C)C1CC=C(C)CC1 (centres unmarked)

1. 2.85
2. 1.05
